procedureDetails: in vitro
testContext: human, hela cells, % viability
Below: a set of entries, each annotated with reported viability at 28.5 h, 10 µM.

{"molecule": "O=c1c2ccccc2nc2c3ccccc3c(NCc3ccccn3)nn12 [CBK265964]", "viability at 28.5 h, 10 µM (%)": 89.3}
{"molecule": "O=C(O)c1ccc(CCN2CCCC2)nc1 [CBK034220]", "viability at 28.5 h, 10 µM (%)": 107}
{"molecule": "CCN1CCN(CCCOc2ccccc2Cc2ccccc2)CC1 [CBK267379G]", "viability at 28.5 h, 10 µM (%)": 95}
{"molecule": "COC(=O)c1c(NC(=S)NCc2ccccn2)sc2c1CCC2 [CBK267090]", "viability at 28.5 h, 10 µM (%)": 95.9}
{"molecule": "CC(=O)N1C[C@@H]2CCCCN(CC(=O)NC3CC3)[C@@H]2C1 [CBK285508]", "viability at 28.5 h, 10 µM (%)": 101}

---

procedureDetails: in vitro
testContext: human, hela cells, % viability
assayMetric: viability at 28.5 h, 10 µM

{"compound": "NC1CC(c2cc(NCCCc3nnc4ccccn34)ncn2)C1 (stereo not drawn) [CBK307120]", "resultValue": "104%"}
{"compound": "O=C(Nc1ccncc1)c1cnn(-c2ccc(Cl)cc2)c1C(F)(F)F [CBK107441]", "resultValue": "95.5%"}
{"compound": "Cn1c(SCCC(=O)O)nnc1-c1ccc2c(c1)OCO2 [CBK269842]", "resultValue": "92.6%"}
{"compound": "O=C(c1cc(-c2ccncc2)nc2ccc(Cl)cc12)N1CCN(C/C=C/c2ccccc2)CC1 [CBK267754]", "resultValue": "106%"}
{"compound": "CC(C)[C@H](CO)Nc1cncc(-c2ccccc2CO)n1 [CBK065326]", "resultValue": "88.6%"}
{"compound": "Cc1nn(C)c(Cl)c1S(=O)(=O)Nc1cccnc1N1CCOCC1 [CBK062286]", "resultValue": "99.5%"}
{"compound": "CCN(CCc1nc2cc(OC)ccc2[nH]1)C(=O)c1ccc(=O)n(C)n1 [CBK307712]", "resultValue": "108%"}
{"compound": "Cc1nc2c(c(=O)[nH]1)CC[C@@H]1CN(C(=O)c3cccs3)C[C@H]21 [CBK284406]", "resultValue": "88.7%"}
{"compound": "O=C(c1cccnc1)C1CCN(C(=O)Cc2ccccc2F)CC1 [CBK283814]", "resultValue": "87.5%"}
{"compound": "O=C(NCc1ccccc1)c1ccccc1NS(=O)(=O)c1ccccc1F [CBK113881]", "resultValue": "106%"}
{"compound": "O=C(O)COCC(=O)N1CCCC(c2nc(-c3ccccc3)c3ccccn23)C1 (stereo not drawn) [CBK046806]", "resultValue": "86.1%"}
{"compound": "CCN(CC)CCNC(=O)c1ccc(Nc2cncc(-c3ccc(O)cc3)n2)c(OC)c1 [CBK122659]", "resultValue": "82.2%"}
{"compound": "CCOC(=O)c1c(NC(=O)C2CCCN2S(=O)(=O)c2ccccc2)sc2c1CCCC2 (stereo not drawn) [CBK265012]", "resultValue": "92%"}
{"compound": "COc1cc(NC(=O)C(C)Oc2cccc(Cl)c2)c(C(=O)O)cc1OC (stereo not drawn) [CBK268470]", "resultValue": "92.4%"}
{"compound": "COc1cccc(CNc2cccc(C(=O)O)c2)c1OCc1ccc(Cl)cc1Cl [CBK074424]", "resultValue": "91.3%"}
{"compound": "CCCCc1ccc(Nc2ncnc3nc[nH]c23)cc1 [CBK288006]", "resultValue": "96.3%"}
{"compound": "CCOC(=O)c1cn(CC#N)c2cc(F)c(F)cc2c1=O [CBK304211]", "resultValue": "98.3%"}
{"compound": "CCc1nnc(NS(C)(=O)=O)s1 [CBK062197]", "resultValue": "93%"}
{"compound": "CS(=O)(=O)Nc1ncc(-c2ccco2)cc1C(=O)NCc1ccc(F)cc1 [CBK076479]", "resultValue": "112%"}
{"compound": "O=C(Nc1cccc(F)c1)N1CCC(Cc2cccnc2)CC1 [CBK306369]", "resultValue": "87.3%"}
{"compound": "COc1ccc(-n2nnnc2SCC(=O)c2ccc(O)c(O)c2)cc1 [CBK293969]", "resultValue": "90.3%"}
{"compound": "CCCS(=O)(=O)N1CCN(CCN2C(=O)c3cccc4cccc(c34)C2=O)CC1 [CBK265559]", "resultValue": "81%"}
{"compound": "CC[C@H]1CN(C(=O)Nc2ccccc2)CC[C@H]1CC(=O)N(C)CC#N [CBK288777]", "resultValue": "101%"}
{"compound": "CCn1cc(Cl)c(C(=O)NC2CCN(c3cc(C)n[nH]3)CC2)n1 [CBK304322]", "resultValue": "91.8%"}
{"compound": "CC(c1ccc2c(c1)OCO2)c1cc2c(cc1OCCO)OCO2 (stereo not drawn) [CBK200110]", "resultValue": "98.9%"}
{"compound": "CN1CCN(c2nc(-c3ccoc3)cn3ccnc23)CC1 [CBK066645]", "resultValue": "97.1%"}
{"compound": "CCn1c(CN(C)Cc2cc(C)[nH]n2)nc2ccccc21 [CBK282120]", "resultValue": "110%"}
{"compound": "Cc1nc(C(F)(F)F)ccc1C(=O)N1CCCC1c1ccc[nH]1 (stereo not drawn) [CBK306328]", "resultValue": "107%"}
{"compound": "O=C(Cn1c(-c2cncs2)nc2ccccc21)Nc1ccc(C(=O)N2CCCCC2)cc1 [CBK269439]", "resultValue": "102%"}
{"compound": "CN(C)CC1COc2ccccc2CN1C(=O)Cc1ccccc1F (stereo not drawn) [CBK285080]", "resultValue": "89.5%"}
{"compound": "CN1CCN(NC(=O)c2cc(-c3cccnc3)nc3ccc(Cl)cc23)CC1 [CBK267729]", "resultValue": "110%"}
{"compound": "Cc1cc(N2C(=O)CC(N3CCC(C(=O)N4CCOCC4)CC3)C2=O)no1 (stereo not drawn) [CBK269035]", "resultValue": "92.6%"}
{"compound": "CCc1nnc(NS(=O)(=O)c2ccc(OC(F)(F)F)cc2)s1 [CBK026672]", "resultValue": "91.7%"}
{"compound": "Cn1nc(CN(Cc2ccccc2C(F)(F)F)C2CC2)[nH]c1=O [CBK306391]", "resultValue": "98.2%"}
{"compound": "O=C(OCc1ccccc1)Sc1nnc(-c2ccc([N+](=O)[O-])cc2)o1 [CBK264504]", "resultValue": "91.3%"}
{"compound": "O=C1CCCN1CCCNC(=O)N1CCCCC1CO (stereo not drawn) [CBK155985]", "resultValue": "91.8%"}
{"compound": "COc1cccc(CNCc2ccco2)c1OCc1ccccc1F [CBK270271C]", "resultValue": "92.6%"}
{"compound": "COC(=O)c1sc2[nH]c(CN(C)Cc3ccco3)nc(=O)c2c1C [CBK306047]", "resultValue": "82.6%"}
{"compound": "O=c1nc(-c2ccco2)oc2ccccc12 [CBK152421]", "resultValue": "112%"}
